Target: T1, monkey CTLA-4, full length, on transfected HEK293 cells (monkey)
T1 construct: whole, on cells; also called cCTLA-4; HEK293-cCTLA-4
Experiment: FACS, monkey CTLA-4 expressing cells
reported_endpoint: MFI at 8 nM
Just the number.

// query MFI at 8 nM value for entry 92C8B6 fully human CTLA-4 antibody (human IgG1, kappa) (antibody, V domains shown, also called mAb42; mAb042) VH: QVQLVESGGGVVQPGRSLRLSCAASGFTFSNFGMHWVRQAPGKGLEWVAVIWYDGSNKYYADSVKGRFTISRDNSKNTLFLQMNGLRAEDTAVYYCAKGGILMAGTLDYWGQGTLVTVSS VL: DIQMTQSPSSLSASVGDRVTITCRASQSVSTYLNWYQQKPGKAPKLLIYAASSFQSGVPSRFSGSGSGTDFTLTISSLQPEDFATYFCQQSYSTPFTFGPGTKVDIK
722

// query MFI at 8 nM value for entry 40C4C6 fully human CTLA-4 antibody (human IgG1, kappa) (antibody, V domains shown, also called mAb09; mAb009) VH: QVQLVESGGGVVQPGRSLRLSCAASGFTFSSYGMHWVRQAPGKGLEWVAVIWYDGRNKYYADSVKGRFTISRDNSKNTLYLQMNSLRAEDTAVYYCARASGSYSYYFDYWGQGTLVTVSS VL: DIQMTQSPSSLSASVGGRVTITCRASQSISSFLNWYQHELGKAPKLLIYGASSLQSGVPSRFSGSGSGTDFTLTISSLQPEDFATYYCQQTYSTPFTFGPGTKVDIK
619

// query MFI at 8 nM value for entry 31C12F3 fully human CTLA-4 antibody (human IgG1, kappa) (antibody, V domains shown, also called mAb010) VH: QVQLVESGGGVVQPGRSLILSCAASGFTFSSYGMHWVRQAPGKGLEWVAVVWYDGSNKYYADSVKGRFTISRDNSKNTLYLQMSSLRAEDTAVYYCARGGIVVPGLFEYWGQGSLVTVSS VL: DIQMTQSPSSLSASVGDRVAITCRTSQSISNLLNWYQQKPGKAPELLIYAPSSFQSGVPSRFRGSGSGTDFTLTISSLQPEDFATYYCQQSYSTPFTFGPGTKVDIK
654

// query MFI at 8 nM value for entry 97A8D1 fully human CTLA-4 antibody (human IgG1, kappa) (antibody, V domains shown, also called mAb49; mAb049) VH: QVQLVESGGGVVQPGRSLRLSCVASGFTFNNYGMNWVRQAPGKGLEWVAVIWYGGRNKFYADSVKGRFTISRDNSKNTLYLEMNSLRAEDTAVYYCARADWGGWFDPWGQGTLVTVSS VL: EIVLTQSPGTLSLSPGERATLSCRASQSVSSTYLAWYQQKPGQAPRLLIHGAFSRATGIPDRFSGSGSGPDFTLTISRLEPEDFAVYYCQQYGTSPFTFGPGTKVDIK
754
